measurement notes: Metabolic stability in human liver microsomes assessed as unbound intrinsic clearance at 1 uM measured upto 30 mins by LC-MS/MS analysis
Type: ADME, Microsome
measurement parameters: 0.5 h
attribute measured: log10 of CL free (log10 of the value in µL/min/mg)
Note the log scale: values are log10 of CL free expressed in µL/min/mg.

[[record]]
item_smiles = "CC1(CNC(=O)[C@H]2[C@@H]3CC[C@@H](C3)[C@H]2NC(=O)c2cc(O[C@H]3CC[C@@](C)(C(=O)O)CC3)c(F)cc2OCF)CCC1"
reading = 1.79


Prompt: Input `COCc1cc(OC)c(C(=O)N[C@@H]2[C@H]3CC[C@H](C3)[C@@H]2C(=O)NCC2(C)CCC2)cc1O[C@H]1CC[C@@](C)(C(=O)O)CC1` , output reported log10 of CL free.
Completion: 1.18

###

measurement notes: Metabolic stability in human hepatocytes assessed as intrinsic clearance measured per 10^6 viable cells/ml at 1 uM measured upto 120 mins by LC-MS/MS analysis
Format: ADME, cell-based, Hepatocyte
measurement parameters: read-out: CLH
Label Satisfied when hepatocyte CLint at 1 µM < 4 µL/min/1e6 cells; otherwise Not satisfied.

[[record]]
item_smiles = "Cc1cc(F)c(O[C@H]2CC[C@@](C)(C(=O)O)CC2)cc1C(=O)N[C@@H]1[C@H]2CC[C@H](C2)[C@@H]1C(=O)NCC1(C)CCC1"
cat = "Not satisfied"

[[record]]
item_smiles = "COc1cc(C2CC2)c(O[C@H]2CC[C@@](C)(C(=O)O)CC2)cc1C(=O)N[C@@H]1[C@H]2CC[C@H](C2)[C@@H]1C(=O)NCC1(C)CCC1"
cat = "Not satisfied"

[[record]]
item_smiles = "COc1cc(F)c(O[C@H]2CC[C@@](C)(C(=O)O)CC2)cc1C(=O)N[C@@H]1[C@H]2CC[C@H](C2)[C@@H]1C(=O)Nc1ccc(F)c(S(F)(F)(F)(F)F)c1"
cat = "Not satisfied"


Prompt: # TODO verify hepatocyte CLint at 1 µM < 4 µL/min/1e6 cells strictly for this molecule: `COc1cc(F)c(O[C@H]2CC[C@@H](C(=O)O)CC2)cc1C(=O)N[C@@H]1[C@H]2CC[C@H](C2)[C@@H]1C(=O)NCC(C)(C)C`
Completion: Satisfied

Prompt: Report whether reported hepatocyte CLint at 1 µM is lower than 4 µL/min/1e6 cells (strictly) for `CC1(CNC(=O)[C@H]2[C@@H]3CC[C@@H](C3)[C@H]2NC(=O)c2cc(O[C@H]3CC[C@@](C)(C(=O)O)CC3)c(C#N)cn2)CCC1`
Completion: Satisfied

###

measurement notes: Oral bioavailability in Han Wistar rat at 1.8 micromol/kg by LC-MS/MS analysis
Format: ADME, organism-based
measurement parameters: in vivo, 1.8 µmol/kg
attribute measured: bioavailability (%)
Numeric answer only, unit % assumed.

Prompt: Supply recorded bioavailability for `COc1cc(C#N)c(O[C@H]2CC[C@@](C)(C(=O)O)CC2)cc1C(=O)N[C@@H]1[C@H]2CC[C@H](C2)[C@@H]1C(=O)NC12CC(F)(C1)C2` here.
Completion: 17

###

measurement notes: Half life in Han Wistar rat at 0.90 micromol/kg, iv by LC-MS/MS analysis
Format: ADME, organism-based
measurement parameters: in vivo, dose 0.9 µmol/kg
attribute measured: half-life
Remember to put the unit after the number in your answer.

Prompt: Given the compound `COc1cc(C#N)c(O[C@H]2CC[C@@](C)(C(=O)O)CC2)cc1C(=O)N[C@@H]1[C@H]2CC[C@H](C2)[C@@H]1C(=O)NC12CC(F)(C1)C2` , write its reported half-life.
Completion: 1.4 h
